- measured.on: HCC827 (Del E746-A750) (Homo sapiens, UniProt P00533, DEL746-750)
- Sequence (P00533 with tags, fused parts or gaps DEL746-750): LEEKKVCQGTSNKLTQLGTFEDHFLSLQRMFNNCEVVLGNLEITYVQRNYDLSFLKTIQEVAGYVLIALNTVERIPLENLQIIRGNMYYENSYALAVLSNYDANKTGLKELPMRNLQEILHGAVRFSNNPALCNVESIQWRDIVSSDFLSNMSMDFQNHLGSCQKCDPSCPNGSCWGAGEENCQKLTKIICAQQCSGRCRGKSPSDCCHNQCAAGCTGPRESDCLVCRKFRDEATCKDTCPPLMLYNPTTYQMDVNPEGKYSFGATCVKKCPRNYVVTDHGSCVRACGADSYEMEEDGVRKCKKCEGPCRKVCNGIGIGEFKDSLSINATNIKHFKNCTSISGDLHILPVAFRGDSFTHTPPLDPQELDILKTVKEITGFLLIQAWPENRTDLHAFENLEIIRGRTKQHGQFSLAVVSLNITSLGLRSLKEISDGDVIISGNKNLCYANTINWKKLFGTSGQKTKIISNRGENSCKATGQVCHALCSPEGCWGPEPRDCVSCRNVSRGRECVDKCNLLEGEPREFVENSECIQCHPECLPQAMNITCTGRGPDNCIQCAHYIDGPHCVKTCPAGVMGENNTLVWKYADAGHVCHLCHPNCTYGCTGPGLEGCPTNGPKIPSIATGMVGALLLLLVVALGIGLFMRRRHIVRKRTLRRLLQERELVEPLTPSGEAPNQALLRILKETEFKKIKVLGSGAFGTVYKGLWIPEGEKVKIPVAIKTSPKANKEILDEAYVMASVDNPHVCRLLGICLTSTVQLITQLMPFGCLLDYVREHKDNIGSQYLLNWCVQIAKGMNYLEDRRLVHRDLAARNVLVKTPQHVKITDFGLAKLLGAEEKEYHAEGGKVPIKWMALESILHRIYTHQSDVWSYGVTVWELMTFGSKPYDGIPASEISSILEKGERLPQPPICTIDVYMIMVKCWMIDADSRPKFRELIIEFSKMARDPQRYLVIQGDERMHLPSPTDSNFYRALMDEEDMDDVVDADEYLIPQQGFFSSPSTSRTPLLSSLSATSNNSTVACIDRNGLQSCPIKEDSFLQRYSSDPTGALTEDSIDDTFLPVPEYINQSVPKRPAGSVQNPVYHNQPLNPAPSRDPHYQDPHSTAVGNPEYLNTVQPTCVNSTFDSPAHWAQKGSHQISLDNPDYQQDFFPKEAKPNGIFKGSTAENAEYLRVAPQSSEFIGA
- experiment: EGFR target modulation in HCC827 cell line (phospho-EGFR Y1173 ELISA)
Category | rule: reported IC50 within range, see interval 1 (below 9 nM), interval 2 (9 nM to below 90 nM), interval 3 (90 nM or more)

Reference set, count: 10
Category of C=CC(=O)N1CCC[C@@H](n2c(NC(=O)c3cccc(C(F)(F)F)c3)nc3cc(C)ccc32)C1 , please.
interval 3

Which class holds C/C=C/C(=O)N1CCCC[C@@H](n2c(NC(=O)c3cc(C)nc(C)c3)nc3cc(CN4CC[C@H](OC)C4)cc(C)c32)C1 ?
interval 2

Categorize the following entry: Cc1cc(C(=O)Nc2nc3cccc(C)c3n2[C@@H]2CCCCN(C(=O)/C=C/CN3CCCC3)C2)ccn1
interval 1

Textbook exercise: identify the category of the compound given here, C=CC(=O)N1CCCC[C@@H](n2c(NC(=O)c3cc(C)nc(C)c3)nc3cc(CN4CCN(C(C)=O)CC4)cc(C)c32)C1 , according to its measured value.
interval 1

Hey, which category is C=CC(=O)N1CCCC[C@@H](n2c(NC(=O)c3ccnc(C)c3)nc3cc(CN4CCCCC4)cc(C)c32)C1 in, do you know?
interval 1

Classify this compound: C=CC(=O)N1CCCC[C@@H](n2c(NC(=O)c3cc(C)nc(C)c3)nc3cc(CN4CCN(C)C(=O)C4)cc(C)c32)C1
interval 1

Could you tell me which band C=CC(=O)N1CCC[C@@H](n2c(NC(=O)c3cccc(C(F)(F)F)c3)nc3cc(CN4CCCC4)ccc32)C1 belongs to?
interval 3

Class label required: C=CC(=O)N1CCCC[C@@H](n2c(NC(=O)c3ccnc(C)c3)nc3cc(CN4CCC(F)(F)C4)cc(C)c32)C1
interval 1

Which class holds Cc1cc(C(=O)Nc2nc3cccc(Cl)c3n2[C@@H]2CCCCN(C(=O)/C=C/CN3CCC(F)(F)C3)C2)ccn1 ?
interval 3

Could you tell me which band C=CC(=O)N1CCCC[C@@H](n2c(NC(=O)c3ccnc(C)c3)nc3cc(CN4CC(F)(F)C4)cc(C)c32)C1 belongs to?
interval 1

More entries:
Into which bin does this compound go? C=CC(=O)N1CCCCC(n2c(NC(=O)c3cccc(C(F)(F)F)c3)nc3cc(C)ccc32)C1 (centres unmarked)
interval 2

Categorize the following entry: COc1cc2nc(NC(=O)c3ccnc(C)c3)n([C@@H]3CCCCN(C(=O)/C=C/CN(C)C)C3)c2cc1Cl
interval 2

----------
- measured.on: EGFR(L858R/T790M) (Homo sapiens, UniProt P00533, L858R/T790M)
- Construct: purchased from Carna (GST-a.a. 669-1210)
- Sequence (P00533 669-1210 T790M/L858R): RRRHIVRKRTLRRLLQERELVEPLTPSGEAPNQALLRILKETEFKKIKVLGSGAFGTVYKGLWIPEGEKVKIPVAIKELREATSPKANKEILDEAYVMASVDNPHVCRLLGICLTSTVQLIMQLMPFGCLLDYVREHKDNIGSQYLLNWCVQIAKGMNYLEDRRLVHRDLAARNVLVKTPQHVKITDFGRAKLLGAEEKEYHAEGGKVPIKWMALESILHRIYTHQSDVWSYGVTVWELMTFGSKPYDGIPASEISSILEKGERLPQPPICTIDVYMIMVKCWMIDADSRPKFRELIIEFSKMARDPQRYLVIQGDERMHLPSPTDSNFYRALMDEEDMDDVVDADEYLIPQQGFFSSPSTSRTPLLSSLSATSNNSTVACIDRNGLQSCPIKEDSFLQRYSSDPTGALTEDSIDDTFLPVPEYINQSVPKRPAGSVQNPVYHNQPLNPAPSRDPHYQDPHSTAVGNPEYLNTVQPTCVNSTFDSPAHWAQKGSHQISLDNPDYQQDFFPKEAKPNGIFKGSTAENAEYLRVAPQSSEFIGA
- experiment: EGFR biochemical assay (HTRF), IC50 determinations
- measurement.conditions: EGFR (L858R/T790M) with 90 min pre-incubation; read-out: IC50 (μM) Column B
- Experimental: All EGFR biochemical assays were carried out by HTRF method. […] The substrate peptide Biotin-TK-peptide was purchased from Cis-Bio. […] All reactions were carried out at room temperature in white ProxiPlate™ 384-well Plus plates (PerkinElmer) and were quenched with 5 μL of 0.2 M EDTA at 60 min. Five L of the detection reagents (2.5 ng PT66K and 0.05 μg SAXL per well) were added, the plates were incubated at room temperature for 1 h and then read in EnVision reader. […]
readout.type: log10 IC50 (log10 of the value in µM)
Form field - Quantity: IC50; Unit: µM; Scale: log10

For orientation, consider the following solved cases.
Provide one value: measured log10 IC50 of Cc1nccc(C(=O)Nc2nc3cccc(C)c3n2C2CCCCN(C(=O)/C=C/CN(C)C)C2)n1 (centres unmarked)
-2.30

Give the measured log10 IC50 for C=CC(=O)N1CC(n2c(NC(=O)c3cccc(C(F)(F)F)c3)nc3cc(C)ccc32)C1
-1.01

Please give the documented log10 IC50 of Cc1cccc2nc(NC(=O)c3cccc(F)c3F)n(C3CCCCN(C(=O)/C=C/CN(C)C)C3)c12 (centres unmarked)
-2.70

Give a short answer stating reported log10 IC50 for C=C(CN(CC)CC)C(=O)N1CCCC[C@@H](n2c(NC(=O)c3ccnnc3)nc3cccc(C)c32)C1 .
-1.92

Identify log10 IC50 associated with the molecule C=CC(=O)N1CCN(C(C)=O)CC(n2c(NC(=O)c3ccnc(C)c3)nc3cccc(Cl)c32)C1 (centres unmarked)
-2.05

Report measured log10 IC50; entry is C=CC(=O)N1CCCCC(n2c(NC(=O)c3ccccc3)nc3cccc(C(=O)NCC(=O)OC)c32)C1 (centres unmarked)
-2.10

Query molecule follows.
Supply reported log10 IC50 belonging to this molecule: C=CC(=O)N1CCC[C@@H](n2c(NC(=O)c3cccc(C(F)(F)F)c3)nc3cc(C(=O)OC)ccc32)C1
-0.92
